Catalogue of IC50 readings, one per entry.
target: BRG-1 (Homo sapiens)
Construct: made in house; host or cells: High Five insect cells
Sequence (P51532 whole entry): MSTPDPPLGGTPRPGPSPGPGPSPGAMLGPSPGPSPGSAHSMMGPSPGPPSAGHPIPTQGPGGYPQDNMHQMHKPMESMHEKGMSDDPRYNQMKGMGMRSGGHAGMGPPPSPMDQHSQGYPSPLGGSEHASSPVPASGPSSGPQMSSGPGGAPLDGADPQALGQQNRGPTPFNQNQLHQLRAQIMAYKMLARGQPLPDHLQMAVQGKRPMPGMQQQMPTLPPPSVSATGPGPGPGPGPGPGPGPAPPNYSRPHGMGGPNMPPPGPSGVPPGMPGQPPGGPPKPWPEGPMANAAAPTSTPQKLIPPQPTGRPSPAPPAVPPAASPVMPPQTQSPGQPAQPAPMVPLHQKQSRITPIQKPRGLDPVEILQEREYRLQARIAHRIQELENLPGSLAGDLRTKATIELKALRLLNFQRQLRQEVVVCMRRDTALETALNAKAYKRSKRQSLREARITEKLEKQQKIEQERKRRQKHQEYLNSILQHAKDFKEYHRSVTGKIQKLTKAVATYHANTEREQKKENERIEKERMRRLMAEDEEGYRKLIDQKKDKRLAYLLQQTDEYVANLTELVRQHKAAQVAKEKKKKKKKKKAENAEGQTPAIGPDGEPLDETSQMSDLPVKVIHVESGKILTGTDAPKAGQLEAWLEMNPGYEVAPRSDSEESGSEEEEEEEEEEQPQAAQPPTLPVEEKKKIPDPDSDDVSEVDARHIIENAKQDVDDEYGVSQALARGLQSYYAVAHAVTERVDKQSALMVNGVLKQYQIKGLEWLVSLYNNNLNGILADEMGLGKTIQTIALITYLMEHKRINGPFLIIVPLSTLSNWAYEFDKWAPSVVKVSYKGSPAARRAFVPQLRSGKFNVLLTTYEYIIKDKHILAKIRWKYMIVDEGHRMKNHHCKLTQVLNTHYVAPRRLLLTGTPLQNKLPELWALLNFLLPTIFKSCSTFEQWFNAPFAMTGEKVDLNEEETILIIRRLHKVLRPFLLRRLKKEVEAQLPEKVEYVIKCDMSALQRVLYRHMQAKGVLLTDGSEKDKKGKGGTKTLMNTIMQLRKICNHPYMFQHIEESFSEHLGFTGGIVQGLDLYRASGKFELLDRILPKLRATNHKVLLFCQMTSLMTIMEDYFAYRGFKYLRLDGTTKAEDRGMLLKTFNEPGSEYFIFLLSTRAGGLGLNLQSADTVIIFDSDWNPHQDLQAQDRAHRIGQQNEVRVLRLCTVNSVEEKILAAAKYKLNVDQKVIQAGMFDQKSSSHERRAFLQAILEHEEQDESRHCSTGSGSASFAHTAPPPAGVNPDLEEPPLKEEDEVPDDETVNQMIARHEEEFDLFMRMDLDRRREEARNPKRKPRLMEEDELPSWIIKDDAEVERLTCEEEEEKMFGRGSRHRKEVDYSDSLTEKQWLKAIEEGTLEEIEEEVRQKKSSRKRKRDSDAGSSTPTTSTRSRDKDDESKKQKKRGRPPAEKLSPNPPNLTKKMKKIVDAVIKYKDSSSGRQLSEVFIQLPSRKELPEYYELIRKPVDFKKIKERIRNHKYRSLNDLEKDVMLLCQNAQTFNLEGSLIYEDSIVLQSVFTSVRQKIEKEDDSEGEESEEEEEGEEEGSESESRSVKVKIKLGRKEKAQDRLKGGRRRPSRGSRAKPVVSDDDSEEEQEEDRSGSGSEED
measurementDescription: ATPase catalytic activity of BRG-1, ADP-Glo in vitro biochemical assay
conditionDescription: ATPase catalytic activity, 30 nM BRG-1, 400 μM ATP, read-out: BRG1 IP50 (μM)*

# count of solved cases: 5
- molecule: "Cc1cc(-c2cccc(-c3csc(NC(=O)CNC(=O)c4ccn(S(C)(=O)=O)c4)n3)c2)ccn1 [Compound 154]"
  readoutValue: "< 0.01 µM"
- molecule: "COC[C@H](NC(=O)c1ccn(S(C)(=O)=O)c1)C(=O)Nc1nc(-c2ccc(F)c(N3C[C@@H](C)O[C@@H](C)C3)n2)cs1 [Compound 377]"
  readoutValue: "> 0.01 µM"
- molecule: "COC[C@H](NC(=O)c1ccn(C(C)(C)C)n1)C(=O)Nc1nc(-c2ccc3ccn(C)c(=O)c3c2)cs1 [Compound 345]"
  readoutValue: "> 0.1 µM"
- molecule: "COC[C@H](NC(=O)c1ccn(S(C)(=O)=O)c1)C(=O)Nc1nc(-c2cccc(C3CC(C)(C)OC(C)(C)C3)c2)cs1 [Compound 353]"
  readoutValue: "> 0.1 µM"
- molecule: "Cn1nccc1C(=O)NCC(=O)Nc1nc(-c2cccc(C#N)c2)cs1 [Compound 32]"
  readoutValue: "> 1 µM"

Any idea what IC50 was measured for CS(=O)(=O)n1ccc(C(=O)NCC(=O)Nc2nc(C3CCCN(c4ccncc4)C3)cs2)c1 (stereo not drawn) [Compound 111] ?
> 0.1 µM

Any idea what IC50 was measured for CS(=O)(=O)n1ccc(C(=O)NCC(=O)Nc2nc(-c3cccc(OCC4CCC4)c3)cs2)c1 [Compound 307] ?
> 0.01 µM

Any idea what IC50 was measured for CC[C@@H]1CN(c2cccc(-c3csc(NC(=O)CNC(=O)c4ccn(S(C)(=O)=O)c4)n3)c2)CCO1 [Compound 237] ?
> 0.01 µM

Any idea what IC50 was measured for CS(=O)(=O)n1ccc(C(=O)NCC(=O)Nc2nc(-c3cccc(CO[C@H]4CC[C@H](O)CC4)c3)cs2)c1 [Compound 105] ?
< 0.01 µM

Any idea what IC50 was measured for C[C@H](NC(=O)c1ccn(S(C)(=O)=O)c1)C(=O)Nc1nc(-c2cccc(N3CC(O)C3)c2)cs1 [Compound 365] ?
> 0.01 µM

Any idea what IC50 was measured for CN(CC(=O)O)c1cc(-c2cccc(-c3csc(NC(=O)CNC(=O)c4ccn(S(C)(=O)=O)c4)n3)c2)ccn1 [Compound 15] ?
< 0.01 µM

Any idea what IC50 was measured for C[C@@H]1CN(c2ccc(F)c(-c3csc(NC(=O)CNC(=O)c4ccn(S(C)(=O)=O)c4)n3)c2)C[C@H](C)O1 [Compound 297] ?
> 0.1 µM
